Test system: CCRF-CEM, a human acute lymphoblastic leukemia cell line
Assay: CCRF-CEM cytotoxicity screen (cytostatic activity)
Format: cell-based
Settings: Homo sapiens, read-out: IC50 (50% minimum inhibitory concentration)
QUANTITY: IC50 (µg/mL)
Only the number, expressed in µg/mL, is required.

SMILES RECORD	IC50 [µg/mL]
CC[C@]1(O)C[C@@H]2CN(CCc3c([nH]c4ccccc34)[C@@](C(=O)OC)(c3cc4c(cc3OC)N(C)[C@H]3[C@@](O)(C(=O)NN5C(=O)CCC5=O)[C@H](OC(=O)CCC(=O)O)[C@]5(CC)C=CCN6CC[C@]43[C@@H]65)C2)C1	0.5
CC[C@H]1C[C@@H]2CN(CCc3c([nH]c4ccccc34)[C@@](C(=O)OC)(c3cc4c(cc3OC)N(C)[C@H]3[C@@](O)(C(=O)NN5C(=O)CCC5=O)[C@H](O)[C@]5(CC)C=CCN6CC[C@]43[C@@H]65)C2)C1	0.075
CC[C@]1(O)C[C@@H]2CN(CCc3c([nH]c4ccccc34)[C@@](C(=O)OC)(c3cc4c(cc3OC)N(C)[C@H]3[C@@](O)(C(=O)NN5C(=O)CCC5=O)[C@H](O)[C@]5(CC)C=CCN6CC[C@]43[C@@H]65)C2)C1	0.02

Now consider a different compound.
Suppose we examine the compound CCC(=O)O[C@@H]1[C@]2(CC)C=CCN3CC[C@@]4(c5cc([C@@]6(C(=O)OC)C[C@H]7CN(CCc8c6[nH]c6ccccc86)C[C@](O)(CC)C7)c(OC)cc5N(C)[C@H]4[C@@]1(O)C(=O)NN1C(=O)CCC1=O)[C@@H]32 ; what IC50 value has been reported?
0.01
